Kindly supply the reported log10 of IC50 values for the records listed here.
Test system: CEM cells HIV-1 protection, formazan growth assay
Assay: NCI AIDS Antiviral Assay
Conditions: measured here: growth of uninfected CEM cells
Use the decimal logarithm of IC50 (µM).

Q: Please look up its log10 of IC50: C=C1C(=O)O[C@@H]2[C@H]1CC[C@H](C)[C@@H]1CCC(=O)[C@@]21C
A: 0.53

Q: Then what about the compound CCCCCC(/C=N/N)C(O)(C(F)(F)F)C(F)(F)F (stereo unspecified) ?
A: 0.17

Q: Same read-out for O=C1Nc2ccc([N+](=O)[O-])c3c([N+](=O)[O-])ccc1c23 ?
A: 0.01

Q: Repeat with C=CCn1c2c(sc1=S)C(S)N=CN2 (stereo unspecified)
A: 1.63

Q: Next record, please: O=C1/C(=C/c2ccc(Cl)c(Cl)c2)CNC/C1=C\c1ccc(Cl)c(Cl)c1
A: 0.94

Q: Next compound up: C1=Cc2cccc3occ(c23)C=C1
A: 1.46

Q: Next entry: O=C1C(=O)C(CCCO)(CCCO)CCCCCCCCC1(CCCO)CCCO
A: 2.01

Q: Now this one: CC12c3ccccc3C(C)(c3c1ccc1ccccc31)C1C(=O)OC(=O)C12 (stereo unspecified)
A: 1.43

Q: Thanks! And C=C[C@@H]1c2ccccc2C=C[C@]12C=CC(=O)CC2 ?
A: 1.34

Q: Another compound to check: CC(C)CCC[C@@H](C)C1CCC2[C@@H]3CC(OS(=O)(=O)O)C4C[C@@H](OC5OC(CO)C(O)C(O)C5O)CC[C@]4(C)C3CC[C@@]21C (stereo partly specified)
A: 0.78

Q: Record: c1ccc(Cc2ccc(SSc3ccc(Cc4ccccc4)cc3)cc2)cc1
A: 1.43

Q: Check CN(C)c1nc(N(C)C)nc(N(C)C)n1 too.
A: 1.42

Q: Also, CC1C/C(=N\N(C)C)C(C#N)(C#N)C1(C#N)C#N (stereo unspecified) please.
A: 0.78

Q: Let us now turn to Cc1cc2cc3n(c2nn1)N=C(Cl)CC3
A: 0.80

Q: Next record, please: O=C(NCCCCCCCCCCNC(=O)c1cc(O)c(O)c(O)c1)c1cc(O)c(O)c(O)c1
A: 0.96

Q: Now give it for O=C1NC(=S)N/C1=C\c1cccs1 too.
A: 2.26

---

Tested on: CEM cells HIV-1 protection, formazan growth assay
Assay: NCI AIDS Antiviral Assay
Conditions: measured here: growth of uninfected CEM cells
What IC50 was measured for each of the following?

Q: I have this compound here, CN1C(=O)/C(=N/N(c2ccccc2)c2ccccc2)c2ccccc21 , and I need its recorded IC50.
A: > 200 µM

Q: Next record, please: COc1ccc(CC2(Cc3ccc(OC)cc3)CCOC2=O)cc1
A: > 21.9 µM

Q: And then CC(=O)/C(=C/N1CC(=O)NC1=S)C(=O)Nc1ccccc1 , what is it?
A: > 200 µM

Q: Field entry: O=C(c1ccc(NCN2C(=O)CCC2=O)cc1)c1ccc(NCN2C(=O)CCC2=O)cc1
A: > 30.2 µM

Q: How about COC(=O)C(Cc1ccccc1)N=Cc1c(O)c(O)c(C(C)C)c2cc(C)c(-c3c(C)cc4c(C(C)C)c(O)c(O)c(C=NC(Cc5ccccc5)C(=O)OC)c4c3O)c(O)c12 (centres undefined) ?
A: > 11.7 µM

Q: Then this compound: CC(C)NC(=O)/C=C/C=C/c1ccc(Cl)cc1
A: > 28.8 µM

Q: Consider next the compound N#Cc1[nH]c(=O)n(-c2cccc3ccccc23)c1N in the same way.
A: > 200 µM

Q: Same for O=[N+]([O-])c1cccc(C2N3CCCCC3[C@@H]3c4[nH]c5ccccc5c4CCN23)c1 (some centres undefined)
A: > 18.6 µM

Q: Same read-out for C=C(C)CCC(=O)[C@](C)(O)[C@H]1[C@H](O)C[C@@]2(C)[C@@H]3CCc4c(cc(OC5OC(CO)C(O)C(O)C5O)c(O)c4C)C3(C)C(=O)C[C@]12C (some centres undefined) ?
A: > 200 µM

Q: Now the compound CC1OC(OP(=O)(OCc2ccccc2)OCc2ccccc2)C(OC(=O)c2ccccc2)C(OC(=O)c2ccccc2)C1I (centres undefined)
A: > 25.1 µM

Q: Same lookup for O=C1OC(=O)c2ccc3c4c(ccc1c24)C(=O)OC3=O , please.
A: > 933 µM

Q: # repeat for N/C(=N\NS(=O)(=O)c1ccccc1)Oc1ccc(Br)cc1Br
A: > 112 µM

Q: Try the compound Oc1c2cc(Cl)cc1COCc1cc(Cl)cc(c1O)COCc1cc(Cl)cc(c1O)COC2
A: 38.9 µM

Q: Also CC(=O)OCC1OC(n2ncc(=O)[nH]c2=O)C(OC(C)=O)C1OC(C)=O (centres undefined) , if possible.
A: 1.05 µM

Q: Lookup Cc1cc2c(c(C(=O)NCC(=O)O)c1)Oc1c(cc(C)cc1C(=O)NCC(=O)O)S2
A: > 200 µM

Q: Same for COc1ccc(C2Oc3cc(OC)c(O)c(C)c3[C@H]2C)cc1 (some centres undefined)
A: 30.9 µM

Q: Next compound up: CCOC(=O)[C@H]1CSC[C@@H](C(=O)OC)N1
A: > 562 µM

Q: Now the compound COc1ccc(-c2c3c(n(C4OC(CO)C(O)C(O)C4O)c(=S)c2C#N)CC(C)(C)CC3=O)cc1 (centres undefined)
A: 105 µM

Q: Then O=C(/C=C/c1ccccc1Br)c1ccccc1 ?
A: 3.16 µM

Q: How about this compound: CCOC(=O)c1nc(C)c(-c2ccccc2)c(-c2ccccc2)c1C
A: > 11.5 µM

Q: And then OCC(O)COc1c(Cl)cc(Cl)cc1Cl (centres undefined) , what is it?
A: > 251 µM

Q: Query CC1CCc2c(sc3ncnc(N/N=C/c4ccc(Cl)cc4)c23)C1 (centres undefined) next
A: > 14.5 µM

Q: Record: CC(C)/C(Cl)=N/OC(=O)Nc1ccc(Cl)c(Cl)c1
A: 3.16 µM

Q: And what about the compound Cn1cnc([N+](=O)[O-])c1Sc1nnnn1C ?
A: 5.5 µM

Q: O=S(=O)(F)c1cc(Cl)ccc1C[P+](c1ccccc1)(c1ccccc1)c1ccccc1 , same question.
A: 64.6 µM

Q: Then this compound: CC(=O)c1sc2c(c1OC(=O)c1ccccc1)c(=O)n(-c1ccccc1)c(=S)n2-c1ccccc1
A: 0.0631 µM

Q: Subsequent entry: COC(=O)/C=C(/C=C1/C(C#N)=C(N)N(c2ccc(Cl)cc2)C1(C)/C(=C/C(=O)OC)C(=O)OC)C(=O)OC (centres undefined)
A: 23.4 µM

Q: N=C1c2ccccc2C(=O)c2c(NCCNCCO)ccc(O)c21 ?
A: 0.759 µM

Q: Please answer likewise for COc1ccc(C2CC(=O)CC(c3ccc(OC)cc3)C23C(=O)CCCC3=O)cc1 (centres undefined)
A: > 200 µM
